target_under_test: JH2 domain of human Tyk2 (Homo sapiens, UniProt P29597)
Construct: 10×His-tagged TYK2 JH2 domain (amino acid 575-876)
Sequence (P29597 575-876): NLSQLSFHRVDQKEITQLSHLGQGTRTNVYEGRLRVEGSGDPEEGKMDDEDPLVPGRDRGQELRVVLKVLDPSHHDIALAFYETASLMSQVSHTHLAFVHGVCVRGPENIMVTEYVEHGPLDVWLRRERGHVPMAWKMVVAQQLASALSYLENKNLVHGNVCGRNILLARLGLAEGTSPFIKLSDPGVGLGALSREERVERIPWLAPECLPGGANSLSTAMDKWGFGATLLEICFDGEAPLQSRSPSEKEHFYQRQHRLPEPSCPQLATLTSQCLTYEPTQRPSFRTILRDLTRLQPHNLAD
procedure_summary: JH2 biochemical assay (TR-FRET probe displacement)
Format: binding
condition_set: JH2 biochemical assay
Structures can show the parent of a compound that is named as a salt.
Task for the reader: assign each of the following molecules its reported IC50.

Query block: Endpoint output: IC50 of COc1ccc(N2CC3(CC3)c3cnc(NC(C)=O)cc32)nc1C(C)(F)F . Value?
Result block: ≤ 10 nM

Query block: Item CC(=O)Nc1cc2c(cn1)C1(CC1)CN2c1nc(C(C)(F)F)cs1 [Example 79, trifluoroacetate] has what recorded IC50?
Result block: 10 to 100 nM

Query block: Please report the recorded IC50 for COC(C)(C)c1nc(C)cc(N2CC3(CC3)c3cnc(NC(C)=O)cc32)n1 .
Result block: 10 to 100 nM

Query block: Report IC50 for COC1CCCN(c2cc(C)cc(N3CC4(CC4)c4cnc(NC(C)=O)cc43)n2)C1 (centres unmarked) please.
Result block: 100 to 1000 nM

Query block: If you can, please state the reported IC50 value of CC(=O)Nc1cc2c(cn1)C1(CC1)CN2c1cc(C)cc(-c2cnn(C3CNC3)c2)n1 [Example 268, trifluoroacetate] .
Result block: 100 to 1000 nM

Query block: What value of IC50 has been recorded for this entry: CCS(=O)(=O)C1CN(c2cc(C)cc(N3CC4(CC4)c4cnc(NC(C)=O)cc43)n2)C1
Result block: 100 to 1000 nM

Query block: Entry CC(=O)Nc1cc2c(cn1)C1(CC1)CN2c1cc(C2CC2)nc(C(C)(F)F)n1 : reported IC50 = ?
Result block: ≤ 10 nM

Query block: What measured IC50 goes with CC(=O)Nc1cc2c(cn1)C1(CCCC1)CN2c1ccnc(C(C)(F)F)n1 ?
Result block: 100 to 1000 nM

* * *

target_under_test: JH2 domain of human Tyk2 (Homo sapiens)
Construct: 10×His-tagged TYK2 JH2 domain (amino acid 575-876)
procedure_summary: JH2 biochemical assay (TR-FRET probe displacement)
Assay type: binding
condition_set: JH2 biochemical assay
Structures can show the parent of a compound that is named as a salt.
Consider the following compounds; for each one, report its IC50.

Query block: Record request: IC50 value, item CC(=O)Nc1cc2c(cn1)C1(CC1)CN2c1cccc(C2(F)COC2)n1
Result block: 10 to 100 nM

Query block: Suppose we examine the compound CC(=O)Nc1cc2c(cn1)C1(CC1)CN2c1cc(C)cc(-c2cnn(S(C)(=O)=O)c2)n1 [Example 258, trifluoroacetate] ; what IC50 value has been reported?
Result block: 10 to 100 nM

Query block: Given the entry CC(=O)Nc1cc2c(cn1)C1(CC1)CN2c1cc(C)nc(N2CCCCC2)n1 , report its measured IC50.
Result block: 10 to 100 nM

Query block: Item under review: CC(=O)Nc1cc2c(cn1)C1(CC1)CN2c1cc(C)cc(N2CCC(O)(C(F)(F)F)C2)n1 (stereo not shown) . Reported IC50?
Result block: 100 to 1000 nM

* * *

target_under_test: JH2 domain of human Tyk2 (Homo sapiens, UniProt P29597)
Construct: 10×His-tagged TYK2 JH2 domain (amino acid 575-876)
procedure_summary: JH2 biochemical assay (TR-FRET probe displacement)
Assay type: binding
condition_set: JH2 biochemical assay
Counter-ions that a name gives are not always drawn.
Assign IC50 to each entry below.

Query block: # query: IC50 of entry CC(=O)Nc1cc2c(cn1)C1(CC1)CN2c1cc(CN2CCC2)nc(C(C)(F)F)n1
Result block: 10 to 100 nM

Query block: Which IC50 value belongs to CC(=O)Nc1cc2c(cn1)C1(CCC1)CN2c1cccc(C(C)(F)F)n1 ?
Result block: 10 to 100 nM

Query block: Which measured IC50 value corresponds to CC(=O)Nc1cc2c(cn1)C1(CC1)CN2c1cc(C)nc(-c2cnn(C3CC3)c2)n1 ?
Result block: 10 to 100 nM

Query block: Quick one: IC50 for COCCOc1cc(C)cc(N2CC3(CC3)c3cnc(NC(C)=O)cc32)n1 [Example 357, trifluoroacetate] ?
Result block: 10 to 100 nM

Query block: Entry CC(=O)Nc1cc2c(cn1)C1(CC1)CN2c1cc(C)nc2cc(C)nn12 has what IC50?
Result block: ≥ 1000 nM

Query block: Param item = CC(=O)Nc1cc2c(cn1)C1(CCC1)CN2c1nccc(C(C)(F)F)n1 ; retrieve measured IC50.
Result block: 10 to 100 nM

Query block: // returns reported IC50 for input COC1CCC(Oc2cc(C)cc(N3CC4(CC4)c4cnc(NC(C)=O)cc43)n2)C1 (stereo not drawn) [Example 338, trifluoroacetate]
Result block: 100 to 1000 nM

Query block: State the recorded IC50 for this entry: CC(=O)Nc1cc2c(cn1)C1(CC1)CN2c1cc(C)cc(OC2CC(C)C2)n1 (stereo not drawn) [Example 347, trifluoroacetate]
Result block: 100 to 1000 nM

Query block: Look up IC50: CC(=O)Nc1cc2c(cn1)C1(CC1)CN2c1cc(C)cc(C2(F)CC2)n1
Result block: 10 to 100 nM

Query block: Look up IC50: CC(=O)Nc1cc2c(cn1)C1(CC1)CN2c1cc(Oc2cnnn2C)nc(C(C)(F)F)n1
Result block: 10 to 100 nM

Query block: IC50 for CC(=O)Nc1cc2c(cn1)C1(CCCC1)CN2c1cccc(C(C)(F)F)n1 ?
Result block: 100 to 1000 nM

Query block: IC50 for CC(=O)Nc1cc2c(cn1)C1(CC1)CN2c1cc(C(C)(F)F)ncn1 ?
Result block: 100 to 1000 nM

Query block: Can you look up the measured IC50 of COc1cc(C(C)(F)F)nc(N2CC3(CC3)c3cnc(NC(C)=O)cc32)n1 for me?
Result block: ≤ 10 nM

Query block: Param item = CC(=O)Nc1cc2c(cn1)C1(CC1)CN2c1ccnc(C2COC2)n1 ; retrieve measured IC50.
Result block: 10 to 100 nM

Query block: Item under review: CC(=O)Nc1cc2c(cn1)C1(CC1)CN2c1cc(C)cc(N2CC(C(F)F)C2)n1 [Example 201, trifluoroacetate] . Reported IC50?
Result block: 10 to 100 nM

Query block: What IC50 value was documented for this compound, CC(=O)Nc1cc2c(cn1)C1(CC1)CN2c1cc(C)cc(OC(C)C)n1 [Example 334, trifluoroacetate] ?
Result block: 10 to 100 nM

Query block: IC50 for CC(=O)Nc1cc2c(cn1)C1(CC1)CN2c1cc(C)nc(OC2CCC2)n1 ?
Result block: 10 to 100 nM

Query block: Given the entry CC(=O)Nc1cc2c(cn1)C1(CC1)CN2c1cc(C)nc(CC2CC2)n1 , report its measured IC50.
Result block: ≤ 10 nM

Query block: Requested read-out: IC50. Entry: CC(=O)Nc1cc2c(cn1)C1(CC1)CN2c1cc(NC2CC2)nc(C(C)(F)F)n1 [Example 284, trifluoroacetate]
Result block: ≤ 10 nM

Query block: What measured IC50 goes with CC(=O)Nc1cc2c(cn1)C1(CC1)CN2c1cc(OC(C)C#N)nc(C(C)(F)F)n1 (stereo not drawn) [Example 151, trifluoroacetate] ?
Result block: 10 to 100 nM

Query block: State the recorded IC50 for this entry: CCc1cc(N2CC3(CC3)c3cnc(NC(C)=O)cc32)nc(C(C)(F)F)n1
Result block: ≤ 10 nM

Query block: So what's the measured IC50 for this one? CC(=O)Nc1cc2c(cn1)C1(CC1)CN2c1cc(NC(C)C2COC2)nc(C(C)(F)F)n1 (stereo not drawn)
Result block: ≤ 10 nM

Query block: Item CC(=O)Nc1cc2c(cn1)C1(CCN(C)CC1)CN2c1cccc(C(C)(F)F)n1 [Example 276, trifluoroacetate] has what recorded IC50?
Result block: ≥ 1000 nM

Query block: Query: IC50; subject: CCNc1cc(N2CC3(CC3)c3cnc(NC(C)=O)cc32)nc(C(C)(F)F)n1 [Example 167, trifluoroacetate]
Result block: ≤ 10 nM

Query block: Any idea what its IC50 is? The compound is CCn1ncc(-c2cc(N3CC4(CC4)c4cnc(NC(C)=O)cc43)nc(C(C)(F)F)n2)c1F
Result block: ≤ 10 nM

Query block: Which IC50 is reported for this compound? CC(=O)Nc1cc2c(cn1)C1(CC1)CN2c1cc(NCCC(C)F)nc(C(C)(F)F)n1 (stereo not drawn) [Example 170, trifluoroacetate]
Result block: ≤ 10 nM

Query block: So what does the record say about IC50 for CC(=O)Nc1cc2c(cn1)C1(CC1)CN2c1cc(C)cc(-c2cnn(C(F)F)c2)n1 [Example 259, trifluoroacetate] ?
Result block: ≤ 10 nM
